Provenance of the data: PubChem BioAssay (NCI)

# Test system: ACHN renal
# method: NCI tumour cell line growth inhibition, 48 h
test_readout: GI50

Here is how some molecules turned out for GI50.
{"molecule": "CCNC(=O)N1CCc2c(Cl)c3c(c(OC)c2[C@@H]1[C@H]1OCc2c1ccc(OC)c2OC)OCCO3", "GI50": "6.5 µM"}
{"molecule": "Fc1ccc(-c2ncn(C3CCNCC3)c2-c2ccnc(Oc3cccc(C(F)(F)F)c3)n2)cc1", "GI50": "3.29 µM"}
{"molecule": "COc1ccc2c(c1OC)C(=O)OC2C1c2c(c(N)c3c(c2OC)OCO3)CCN1C (centres undefined)", "GI50": "6.75 µM"}

// switching to the query molecule
Reported GI50 for `O=Cc1cn(Cc2ccccc2)c2ccccc12` : what is it? 33.6 µM

====

# Tested on: OVCAR-4 ovarian
# method: NCI tumour cell line growth inhibition, 48 h
TGI reference

In the examples that follow, each entry is paired with its recorded TGI.
{"compound": "CC(CO)CCC(O)C(C)(O)C1CCC2(O)C3=CC(=O)C4CC(O)C(O)CC4(C)C3CCC12C (stereo not given)", "obs_value": "> 100 µM"}
{"compound": "CCOC(=O)C1C(c2ccc3c(c2)OCO3)c2c([nH][nH]c2=O)CC1(O)OCC (stereo not given)", "obs_value": "> 100 µM"}

Recorded TGI for CCC1c2[nH]c3ccccc3c2C[C@H]2C(=O)NC(Cc3c[nH]c4ccccc34)C(=O)N12 (stereo not given in full) , please? > 100 µM

Similarly, `O=S(=O)(Nc1cc(F)cc(F)c1)c1ccc(-c2cnc(C3CC3)o2)cc1` ? 90.9 µM

====

# System: SK-MEL-5 melanoma
# method: NCI tumour cell line growth inhibition, 48 h
test_readout: TGI

{"compound": "O=S(=O)(Nc1nc2ccccc2n1S(=O)(=O)c1ccccc1)c1ccccc1", "TGI": "> 100 µM"}
{"compound": "CCCC(=O)Nc1ccc(O)c2c1C1CCCCCC21 (centres undefined)", "TGI": "> 100 µM"}
{"compound": "COc1ccc(/C=C2\\C(=O)NC(=O)c3ccccc32)cc1OC", "TGI": "> 94.4 µM"}

Shift focus to the following entry.
Tell me the measured TGI of `C#CC#CC#CC#CC#CC#CC#CC#CC[C@@H]1OC[C@H](COC(=O)O[C@@H](C(=O)O[C@H]2C[C@@]3(O)[C@@H](OC(=O)c4ccccc4)[C@@H]4[C@]5(OC(C)=O)CO[C@@H]5C[C@H](O)[C@@]4(C)C(=O)[C@H](OC(C)=O)C(=C2C)C3(C)C)[C@@H](NC(=O)c2ccccc2)c2ccccc2)O1` , please. > 25 µM

====

Consider the following compounds and their measured TGI readings.
# System: RPMI-8226 leukemia
# method: NCI tumour cell line growth inhibition, 48 h

Worked cases, answers included:
{"compound": "NC(=O)/C(=N\\NC(=O)c1cc2ccccc2cc1O)C1C(=O)N(c2ccccc2)N=C1N (stereo not drawn)", "TGI": "> 100 µM"}
{"compound": "O=C1c2ccccc2S(=O)(=O)N1CSC(=S)N1CCOCC1", "TGI": "51.3 µM"}

If you can, please state the reported TGI value of `O=C(Nc1ccccc1C(=O)N/N=C(\c1ccccc1)c1ccccn1)c1ccccc1` . > 100 µM

====

# System: UO-31 renal
# method: NCI tumour cell line growth inhibition, 48 h
Each record here notes measured TGI.

Give its TGI value. Item: `CCOc1ccccc1C(=O)/C=C/c1cc2ccccc2[nH]c1=O` 1.59 µM

// next record `O=C1c2ccccc2S(=O)(=O)N1CSC(=S)N1CCOCC1` > 100 µM

Thanks! And `N#Cc1c(=N)cc2c3ccccc3oc3c(C#N)c(N)[nH]c1c32` ? > 100 µM

Continue with O=C1C=CC2(NN=C(c3ccccc3)N2c2ccccc2)c2cccc(O)c21 (stereo unspecified) 7.67 µM

Follow-up item: COc1ccc2c(c1OC)C(=O)OC2C1c2c(c(N)c3c(c2OC)OCO3)CCN1C (stereo unspecified) 92.8 µM

Same thing, different molecule: COC(=O)C(/C(=N/NC(N)=O)C(=O)Nc1c(C)cccc1C(C)(C)C)c1nc2ccc(Cl)cc2[nH]c1=O (stereo unspecified) > 100 µM
